So I've got a bunch of compounds here, and I need their pIC50 values.
# System: K562
# assay-protocol: Antiproliferative activity against human K562 cells assessed as reduction in cell viability incubated for 72 hrs by IncuCyte live-cell automated imaging analysis
# condition-context: K562, 72 h
One number for each entry, as −log10 of the molar value.

# smiles-notation, property, reported-value
measured = [
    ("CC(C)(CO)Cn1nc(-c2c[nH]c3ccccc23)c2c(N)ncnc21", "pIC50", 4.92),
]

Please give pIC50, item by item, for the list that follows.
1. CC(C)(C)n1nc(-c2c[nH]c3ccccc23)c2c(N)ncnc21
2. CC[C@@H](N)CNc1ccnc(-c2cc(-c3cnn(C)c3)ccc2O)n1

A)
1: 5.43; 2: 5.66

* * *

# Test system: HCT-116
# assay-protocol: Antiproliferative activity against human HCT-116 cells assessed as reduction in cell viability incubated for 72 hrs by IncuCyte live-cell automated imaging analysis
# condition-context: HCT-116, 72 h
property: IC50 (µM)
Numbers only, in µM.

These recorded examples may help you get a feel for the data.
# smiles-notation, tgt, IC50 / µM
rows = [
    ("Cn1cc(-c2nn(C(C)(C)C)c3ncnc(N)c23)c2ccccc21", "HCT-116", 63),
    ("CC(C)(C)n1nc(-c2c[nH]c3ccccc23)c2c(N)ncnc21", "HCT-116", 2.5),
    ("CC(C)(CO)Cn1nc(-c2c[nH]c3ccccc23)c2c(N)ncnc21", "HCT-116", 13.4),
]

Kindly review the next compound as well.
Q) Returns the measured IC50 for the input compound. Input: CC[C@@H](N)CNc1ccnc(-c2cc(-c3cnn(C)c3)ccc2O)n1
A) 1.7

* * *

# tgt: Serine/threonine-protein kinase D2 (Homo sapiens, UniProt Q9BZL6)
# Sequence (Q9BZL6 whole entry): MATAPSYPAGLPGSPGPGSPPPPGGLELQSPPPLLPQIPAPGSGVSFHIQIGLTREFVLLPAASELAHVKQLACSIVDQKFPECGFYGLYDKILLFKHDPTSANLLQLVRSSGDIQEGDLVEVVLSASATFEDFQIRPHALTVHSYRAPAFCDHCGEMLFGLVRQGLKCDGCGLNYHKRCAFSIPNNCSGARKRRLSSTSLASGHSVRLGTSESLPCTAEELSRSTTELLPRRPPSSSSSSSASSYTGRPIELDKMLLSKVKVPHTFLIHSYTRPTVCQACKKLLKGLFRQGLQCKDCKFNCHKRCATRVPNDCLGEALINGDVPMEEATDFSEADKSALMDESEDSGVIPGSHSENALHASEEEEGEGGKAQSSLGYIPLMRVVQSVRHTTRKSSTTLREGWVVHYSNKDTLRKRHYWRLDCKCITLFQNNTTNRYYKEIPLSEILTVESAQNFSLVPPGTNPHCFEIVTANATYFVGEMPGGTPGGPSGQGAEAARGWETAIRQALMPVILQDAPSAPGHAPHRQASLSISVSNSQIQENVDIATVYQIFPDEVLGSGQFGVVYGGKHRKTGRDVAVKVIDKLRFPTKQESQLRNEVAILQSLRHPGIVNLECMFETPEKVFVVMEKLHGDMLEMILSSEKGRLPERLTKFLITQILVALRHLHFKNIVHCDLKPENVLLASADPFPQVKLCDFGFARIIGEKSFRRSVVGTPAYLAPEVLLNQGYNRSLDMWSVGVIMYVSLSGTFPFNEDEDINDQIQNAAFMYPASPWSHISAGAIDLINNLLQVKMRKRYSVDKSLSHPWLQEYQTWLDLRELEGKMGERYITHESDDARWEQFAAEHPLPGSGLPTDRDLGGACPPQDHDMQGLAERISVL
# assay-protocol: Inhibition of recombinant FLAG-tagged PKD2 (unknown origin) expressed in HEK293T cells using Syntide-2 as substrate measured after 15 mins by ADP-Glo assay
property: IC50 (nM)
Numbers only, in nM.

# smiles-notation, reported-value
records = [
    ("CC(C)(C)n1nc(-c2c[nH]c3ccccc23)c2c(N)ncnc21", 94),
]

Please give IC50, item by item, for the list that follows.
1. CC(C)(C)n1nc(Cc2cccc3ccccc23)c2c(N)ncnc21
2. CC[C@@H](N)CNc1ccnc(-c2cc(-c3cnn(C)c3)ccc2O)n1

A)
[786, 9]

* * *

# Test system: Z-138
# assay-protocol: Antiproliferative activity against human Z138 cells assessed as reduction in cell viability incubated for 72 hrs by IncuCyte live-cell automated imaging analysis
# condition-context: Z-138, 72 h
condition met if IC50 is below 30 µM. condition not met if not; exact matches included in condition not met.

Check out these entries, answers already filled in.
# smiles-notation, label-value
rows = [
    ("Cn1cc(-c2nn(C(C)(C)C)c3ncnc(N)c23)c2ccccc21", "condition not met"),
    ("Nc1ncnc2c1c(-c1c[nH]c3ccccc13)nn2CC1CCNCC1", "condition not met"),
    ("CC[C@@H](N)CNc1ccnc(-c2cc(-c3cnn(C)c3)ccc2O)n1", "condition met"),
    ("CC(C)(C)n1nc(-c2c[nH]c3ccccc23)c2c(N)ncnc21", "condition met"),
]

Now look at this entry.
Q) Regarding CC(C)(CO)Cn1nc(-c2c[nH]c3ccccc23)c2c(N)ncnc21 , kindly confirm whether its IC50 is beneath 30 µM.
A) condition met

* * *

# Test system: K562
# assay-protocol: Antiproliferative activity against human K562 cells assessed as reduction in cell viability incubated for 72 hrs by IncuCyte live-cell automated imaging analysis
# condition-context: K562, 72 h
property: IC50

These recorded examples may help you get a feel for the data.
# smiles-notation, IC50
measured = [
    ("CCOc1ccc2cc(-c3nn(CC4CCN(C)CC4)c4ncnc(N)c34)ccc2n1", "> 100 µM"),
    ("Cn1cc(-c2nn(C(C)(C)C)c3ncnc(N)c23)c2ccccc21", "> 33.7 µM"),
    ("Nc1ncnc2c1c(-c1c[nH]c3ccccc13)nn2CC1CCNCC1", "> 100 µM"),
]

Kindly review the next compound as well.
Q) Returns the measured IC50 for the input compound. Input: CC(C)(C)n1nc(Cc2cccc3ccccc23)c2c(N)ncnc21
A) > 36.3 µM

* * *

# Test system: HCT-116
# assay-protocol: Antiproliferative activity against human HCT-116 cells assessed as reduction in cell viability incubated for 72 hrs by IncuCyte live-cell automated imaging analysis
# condition-context: HCT-116, 72 h
property: IC50

These recorded examples may help you get a feel for the data.
# smiles-notation, reported-value
measured = [
    ("Nc1ncnc2c1c(-c1c[nH]c3ccccc13)nn2CC1CCNCC1", "> 100 µM"),
    ("CC(C)(C)n1nc(Cc2cccc3ccccc23)c2c(N)ncnc21", "> 100 µM"),
]

Kindly review the next molecule as well.
Q) Returns the measured IC50 for the input molecule. Input: CCOc1ccc2cc(-c3nn(CC4CCN(C)CC4)c4ncnc(N)c34)ccc2n1
A) > 55.2 µM
